Cited source: ChEMBL document CHEMBL4138123

System: CCRF-CEM
Test: Cytotoxicity against human CCRF-CEM cells assessed as growth inhibition after 48 hrs by sulforhodamine B assay
Assay type: functional

| Smiles str | TGI (µM) |
| --- | --- |
| COc1ccc(-c2cc(/C=C/C(=O)c3ccc(N)cc3)[nH]n2)cc1OC | 7.81 |
| COc1ccc(C(=O)/C=C/c2cc(-c3cc(OC)c(OC)c(OC)c3)n[nH]2)cc1OC | 3.93 |
| COc1ccc(-c2cc(/C=C/C(=O)c3cc(OC)c(OC)c(OC)c3)[nH]n2)cc1OC | 3.13 |
| COc1cc(-c2cc(/C=C/C(=O)c3ccc(Cl)c(Cl)c3)[nH]n2)cc(OC)c1OC | 23.5 |
| COc1cc(C(=O)/C=C/c2cc(-c3ccc4c(c3)OCO4)n[nH]2)cc(OC)c1OC | 5.74 |
| COc1cc(-c2cc(/C=C/C(=O)c3ccc(F)c(F)c3)[nH]n2)cc(OC)c1OC | 47.2 |
